Recorded values, source PubChem BioAssay (NCI).

system: SF-268 CNS; assay: NCI tumour cell line growth inhibition, 48 h
Each entry below carries its reported TGI.

CCN1C(=O)C(=C/C=C/c2ccc(N(CC)CC)cc2)C(=O)N(CC)C1=S | > 100 µM
COc1cccc2c(=O)c3c(sc12)c(NCCCNCCO)nc1ccccc13 | 3.33 µM
CC(C)(C)NCC(COc1ccc([N+](=O)[O-])cc1)OP(c1ccccc1)c1ccccc1 (stereo unspecified) | > 100 µM

Problem: Requested read-out: TGI. Entry: `O=C(O)CCCCCCCCC(=O)O`
Result: > 500 µM

Problem: Again, but for `C/C1=C\CC[C@@](C)(O)[C@@H]2C[C@H](CC/C(C)=C/CC1)C1(CC1)C(=O)O2`
Result: > 100 µM

Problem: Again, but for `COc1ccc(Nc2nccc(N3CCN(c4c5ccc(Cl)cc5nc5ccc(OC)cc45)CC3)n2)cc1`
Result: > 100 µM

Problem: Again, but for O=C1C(C(O)(C(F)(F)F)C(F)(F)F)CCC1C(O)(C(F)(F)F)C(F)(F)F (stereo unspecified)
Result: > 100 µM

Problem: Again, but for CSc1nc2c(ncn2C2OC(CO)C(O)C(O)C2O)c(=O)[nH]1 (stereo unspecified)
Result: > 100 µM

Problem: Again, but for `C=CC1=C(C)C2=NC1=CC1=NC(=CC3=C(C)C4=C(O)[C@H](C(=O)OC)C(=C5NC(=C2)[C@@H](C)[C@@H]5CCC(=O)O)C4=N3)C(CC)=C1C`
Result: > 100 µM

Problem: Again, but for `Cc1cc(C)n(C2=NS(=O)(=O)c3ccccc3N2C)n1`
Result: > 100 µM

Problem: Again, but for CC(C)C1=C(O)C2=C(C(=O)C1=O)C1(C)CCCC(C)(C)C1C(O)C2OC=O (stereo unspecified)
Result: 24.4 µM

Problem: Again, but for `Cc1cccc(N=Nc2ccc(N=Nc3c(O)ccc4ccccc34)cc2C)c1`
Result: > 100 µM
